Source: patent US12691070B2

- System: BALB/C mice
- ASSAY COMMENT: In vivo expression, whole-body luminescence (IVIS)
- MEASUREMENT SETUP: cirRNA (SEQ ID NO: 1) LNPs, BALB/C mice
- Protocol: 6-8 week old, female BALB/C mice were injected with 0.05 mg*kg-1 of RNA-LNPs encoding for firefly-luciferase by intravenous injection. At 6 hours post injection, animals were intraperitoneally injected with 15 mg/ml of Luciferin substrate and whole-body luminescence was determined by a bioluminescent in vivo imaging system (IVIS).
ASSAY METRIC: In vivo Expression (Whole Body)
Please respond with just the number, no unit label.

CCCCC/C=C\CCOC(=O)CCCCCN(CCCCCC(=O)OCC(CCCCCCCC)CCCCCCCCCC)CCOC(=O)NCCN1CCCC1 (centres unmarked) :: 3.95E+07
CCCCC/C=C\C/C=C\CCCCCCCCN(CCCCCCCC(=O)OC(CCCCCCCC)CCCCCCCC)CCOC(=O)NCCN1CCN(C)CC1 :: 3.51E+07
CCCCC/C=C\C/C=C\CCCCCCCCN(CCCCCCCC(=O)OC(CCCCCCCC)CCCCCCCC)CCCOC(=O)NCCN1CCCC1 :: 7.29E+07
CCCCCCCCCC(=O)OCCCCCCCN(CCCCCCCOC(=O)CCCCCCCCC)CCOC(=O)NCc1ncc[nH]1 :: 1.31E+07

Field: next molecule
Query :: Give BALB/C mice In vivo Expression (Whole Body) for the following molecule: CCCCC/C=C\C/C=C\CCCCCCCCN(CCCCCCCC(=O)OC(CCCCCCCC)CCCCCCCC)CCCOC(=O)NCc1ncc[nH]1
Result :: 8.99E+07
